# method: NCI Yeast Anticancer Drug Screen. Data for the cln2 rad14 strain (AID 165)
# test_parameters: S. cerevisiae cln2 rad14 strain, at 50.0 µM (retest, dose inferred, filed as 5.0)
Compounds without any hit were thinned out: in the full panel of roughly 79,000, 15% have a hit. Activity calls are given as the source filed them. No stated cut-off is given here; in the data, active means growth inhibition above about 70%; inactive means the rest.
The reply should be one of these categories: True = active, False = inactive

Record lookup: outcome of this test for O=C(OC1C=C=CS(=O)(=O)CC#C/C=C\1)c1cnc2ccccc2n1 (centres undefined) ?
True

Record lookup: outcome of this test for O=c1c2ccccc2sc2c([N+](=O)[O-])ccc(NCCNCCO)c12 ?
True

Record lookup: outcome of this test for O=C(CSc1nnc(Cc2ccccc2)o1)Nc1ccc(Cl)cc1 ?
True

Record lookup: outcome of this test for Cn1c2c(c3nc(N)nc(N)c3c1=O)CCc1ccccc1-2 ?
False

Record lookup: outcome of this test for CC(=O)Oc1ccc(-c2ccc(Br)cc2)cc1 ?
True

Record lookup: outcome of this test for O=C(N/N=C/c1ccccc1[O-])c1ccccc1O.O=C(N/N=C/c1ccccc1[O-])c1ccccc1O.[Mn+2] ?
True

Record lookup: outcome of this test for CC1=C(C#N)C(=O)OC1(C)C(CC(=O)c1ccccc1)c1ccccc1 (centres undefined) ?
False

Record lookup: outcome of this test for CC(C)CCCC(=O)CCCCCCC(=O)CCN(O)C(=O)C(N)CO (centres undefined) ?
True

Record lookup: outcome of this test for CC(C)c1ccc2c(c1)CCC1C(C)(C(=O)O)CCCC21C (centres undefined) ?
True
